system: Mycolicibacterium fortuitum; experiment: Antimycobacterial activity against Mycobacterium fortuitum B by agar diffusion assay; format: functional, organism-based
The source made the active and inactive calls. The rule behind the calls is not given here.

{"COMPOUND_STRUCTURE": "O=C(OCc1ccccc1)c1coc(-c2ccc(F)c([N+](=O)[O-])c2)n1", "Activity": "Active"}
{"COMPOUND_STRUCTURE": "O=C(OCc1ccccc1)[C@@H]1COC(c2ccc(F)c([N+](=O)[O-])c2)=N1", "Activity": "Active"}
{"COMPOUND_STRUCTURE": "COc1ccc(-c2nc(C(=O)OCc3ccccc3)co2)cc1", "Activity": "Active"}

###

Each entry below carries its reported MIC.
test system: Mycobacterium tuberculosis; experiment: Antimycobacterial activity against Mycobacterium tuberculosis H37Rv ATCC 27294 in GAS medium after 1 week by microplate alamar blue assay; assay type: functional; conditions: H37Rv ATCC 27294, 168 h

{"COMPOUND_STRUCTURE": "COc1ccc(C2=N[C@H](C(=O)OCc3ccccc3)CO2)cc1OC", "U": "µM", "OPERATOR": "=", "MIC": 39}
{"COMPOUND_STRUCTURE": "COC(=O)[C@@H]1COC(c2ccccc2OCc2ccccc2)=N1", "U": "µM", "OPERATOR": "=", "MIC": 118}
{"COMPOUND_STRUCTURE": "O=C(OCc1ccccc1)c1coc(-c2cccnc2)n1", "U": "µM", "OPERATOR": "=", "MIC": 3.82}
{"COMPOUND_STRUCTURE": "O=C(OCc1ccccc1)[C@@H]1COC(c2ccc([N+](=O)[O-])cc2)=N1", "U": "µM", "OPERATOR": "=", "MIC": 30.6}
{"COMPOUND_STRUCTURE": "O=C(OCc1ccccc1)c1coc(-c2ccc([N+](=O)[O-])cc2OCc2ccccc2)n1", "U": "µM", "OPERATOR": ">", "MIC": 128}
{"COMPOUND_STRUCTURE": "CC(C)Oc1ccc(-c2nc(C(=O)OCc3ccccc3)co2)cc1", "U": "µM", "OPERATOR": "=", "MIC": 1.95}
{"COMPOUND_STRUCTURE": "O=C(OCc1ccccc1)[C@@H]1COC(c2ccc(Cl)cc2)=N1", "U": "µM", "OPERATOR": "=", "MIC": 61}
{"COMPOUND_STRUCTURE": "COC(=O)[C@@H]1COC(c2ccc([N+](=O)[O-])cc2)=N1", "U": "µM", "OPERATOR": ">", "MIC": 128}
{"COMPOUND_STRUCTURE": "O=C(OCc1ccccc1)c1coc(-c2ccc([N+](=O)[O-])cc2)n1", "U": "µM", "OPERATOR": "=", "MIC": 1.79}
{"COMPOUND_STRUCTURE": "O=C(OCc1ccccc1)[C@@H]1COC(c2cncc(Br)c2)=N1", "U": "µM", "OPERATOR": "=", "MIC": 27.6}
{"COMPOUND_STRUCTURE": "COc1ccc(-c2nc(C(=O)OCc3ccccc3)c(C)o2)cc1", "U": "µM", "OPERATOR": "=", "MIC": 47.4}
{"COMPOUND_STRUCTURE": "CC(C)Oc1ccc(C2=N[C@H](C(=O)OCc3ccccc3)CO2)cc1", "U": "µM", "OPERATOR": "=", "MIC": 3.2}
{"COMPOUND_STRUCTURE": "CCCCOc1ccc(C2=N[C@H](C(=O)OCc3ccccc3)CO2)cc1", "U": "µM", "OPERATOR": "=", "MIC": 2.72}
{"COMPOUND_STRUCTURE": "O=C(OCc1ccccc1)[C@@H]1COC(c2ccccn2)=N1", "U": "µM", "OPERATOR": "=", "MIC": 110}
{"COMPOUND_STRUCTURE": "COc1ccc(-c2nc(C(=O)OCc3ccccc3)co2)cc1Cl", "U": "µM", "OPERATOR": "=", "MIC": 2.35}
{"COMPOUND_STRUCTURE": "O=C(OCc1ccccc1)[C@@H]1COC(c2cccc(F)c2)=N1", "U": "µM", "OPERATOR": "=", "MIC": 60.7}
{"COMPOUND_STRUCTURE": "O=C(OCc1ccccc1)[C@@H]1COC(c2cccnc2Sc2ccccc2)=N1", "U": "µM", "OPERATOR": "=", "MIC": 17.8}
{"COMPOUND_STRUCTURE": "O=C(OCc1ccccc1)[C@@H]1COC(c2ccc(OCc3ccccc3)c(F)c2)=N1", "U": "µM", "OPERATOR": "=", "MIC": 0.77}
{"COMPOUND_STRUCTURE": "O=C(OCc1ccccc1)[C@@H]1COC(Cc2ccccc2)=N1", "U": "µM", "OPERATOR": ">", "MIC": 128}
{"COMPOUND_STRUCTURE": "O=C(OCc1ccccc1)[C@@H]1COC(c2ccncc2)=N1", "U": "µM", "OPERATOR": "=", "MIC": 55.6}
{"COMPOUND_STRUCTURE": "Cc1oc(-c2ccccc2)nc1C(=O)O", "U": "µM", "OPERATOR": ">", "MIC": 128}
{"COMPOUND_STRUCTURE": "N#Cc1cccc(C2=N[C@H](C(=O)OCc3ccccc3)CO2)c1", "U": "µM", "OPERATOR": "=", "MIC": 47.2}
{"COMPOUND_STRUCTURE": "O=C(OCc1ccccc1)c1coc(-c2ccc(Cl)cc2)n1", "U": "µM", "OPERATOR": "=", "MIC": 18.9}
{"COMPOUND_STRUCTURE": "O=C(OCc1ccccc1)[C@@H]1COC(c2ccccc2OCc2ccccc2)=N1", "U": "µM", "OPERATOR": "=", "MIC": 12.6}
{"COMPOUND_STRUCTURE": "O=C(OCc1ccccc1)[C@@H]1COC(c2ccc(Br)nc2)=N1", "U": "µM", "OPERATOR": "=", "MIC": 22.9}
{"COMPOUND_STRUCTURE": "O=C(OCc1ccccc1)c1coc(-c2cccc(Br)c2)n1", "U": "µM", "OPERATOR": "=", "MIC": 1.93}
{"COMPOUND_STRUCTURE": "O=C(OCc1ccccc1)[C@@H]1COC(c2ccc(Cl)c(F)c2)=N1", "U": "µM", "OPERATOR": "=", "MIC": 52}
{"COMPOUND_STRUCTURE": "O=C(OCc1ccccc1)c1coc(-c2ccc(Br)nc2)n1", "U": "µM", "OPERATOR": "=", "MIC": 2.54}
{"COMPOUND_STRUCTURE": "Cc1oc(-c2ccccc2OCc2ccccc2)nc1C(=O)OCc1ccccc1", "U": "µM", "OPERATOR": "=", "MIC": 28.3}
{"COMPOUND_STRUCTURE": "O=C(OCc1ccccc1)[C@@H]1COC(c2ccccc2)=N1", "U": "µM", "OPERATOR": "=", "MIC": 7.2}
{"COMPOUND_STRUCTURE": "CCOc1ccc(C2=N[C@H](C(=O)OCc3ccccc3)CO2)cc1", "U": "µM", "OPERATOR": "=", "MIC": 60.6}
{"COMPOUND_STRUCTURE": "O=C(OCc1ccccc1)c1coc(-c2cncc(Br)c2)n1", "U": "µM", "OPERATOR": "=", "MIC": 2.37}
{"COMPOUND_STRUCTURE": "Cc1ccc(C2=N[C@H](C(=O)OCc3ccccc3)CO2)cc1", "U": "µM", "OPERATOR": "=", "MIC": 15.5}
{"COMPOUND_STRUCTURE": "CCCCOc1ccc(-c2nc(C(=O)OCc3ccccc3)co2)cc1", "U": "µM", "OPERATOR": "=", "MIC": 1.76}
{"COMPOUND_STRUCTURE": "O=C(OCc1ccccc1)c1coc(-c2cncc(-c3ccccc3)c2)n1", "U": "µM", "OPERATOR": "=", "MIC": 1.49}
{"COMPOUND_STRUCTURE": "COc1ccc(C2=N[C@H](C(=O)OCc3ccccc3)CO2)cc1Cl", "U": "µM", "OPERATOR": "=", "MIC": 60.7}
{"COMPOUND_STRUCTURE": "Cc1oc(-c2ccccc2)nc1C(=O)OCc1ccccc1", "U": "µM", "OPERATOR": "=", "MIC": 3.92}
{"COMPOUND_STRUCTURE": "COc1cccc(-c2nc(C(=O)OCc3ccccc3)co2)c1", "U": "µM", "OPERATOR": "=", "MIC": 6.04}
{"COMPOUND_STRUCTURE": "O=C(OCc1ccccc1)c1coc(-c2ccccc2OCc2ccccc2)n1", "U": "µM", "OPERATOR": "=", "MIC": 62.6}
{"COMPOUND_STRUCTURE": "O=C(O)[C@@H]1COC(c2ccccc2)=N1", "U": "µM", "OPERATOR": ">", "MIC": 128}
{"COMPOUND_STRUCTURE": "O=C(OCc1ccccc1)[C@@H]1COC(c2ccccc2Cl)=N1", "U": "µM", "OPERATOR": "=", "MIC": 49.9}
{"COMPOUND_STRUCTURE": "COc1ccc(-c2nc(C(=O)OCc3ccccc3)co2)cc1OC", "U": "µM", "OPERATOR": "=", "MIC": 16}
{"COMPOUND_STRUCTURE": "O=C(OCc1ccccc1)c1coc(-c2cccc(F)c2)n1", "U": "µM", "OPERATOR": "=", "MIC": 0.91}
{"COMPOUND_STRUCTURE": "O=C(OCc1ccccc1)c1coc(-c2ccccc2)n1", "U": "µM", "OPERATOR": "=", "MIC": 0.47}
{"COMPOUND_STRUCTURE": "O=C(OCc1ccccc1)[C@@H]1COC(c2cccc(Cl)c2OCc2ccccc2)=N1", "U": "µM", "OPERATOR": "=", "MIC": 6.3}
{"COMPOUND_STRUCTURE": "O=C(OCc1ccccc1)c1coc(-c2ccccn2)n1", "U": "µM", "OPERATOR": "=", "MIC": 2}
